settings: in isopropanol, 283.15 K
measure.name: solubility (mole fraction)

- CO[C@@]1(NC(=O)Cc2cccs2)C(=O)N2C(C(=O)O)=C(COC(N)=O)CS[C@@H]21: 7.19e-05

====

settings: in isopropanol, 278.15 K
measure.name: solubility (mole fraction)

• CO[C@@]1(NC(=O)Cc2cccs2)C(=O)N2C(C(=O)O)=C(COC(N)=O)CS[C@@H]21 = 4.4e-05

====

details: in n-propanol, 308.15 K
measure.name: solubility (mole fraction)

- CO[C@@]1(NC(=O)Cc2cccs2)C(=O)N2C(C(=O)O)=C(COC(N)=O)CS[C@@H]21: 0.000561
